# tested-on: T1, AAV2 (adeno-associated virus 2, UniProt P03135 1-735)
# T1 construct: also called adeno-associated virus serotype 2
# test: SPR, AAV amine-coupled to CM5 chip;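 note: nanobodies flowed as analyte at seven concentrations spanning 1–100 nM over immobilized AAV (500–800 RU), kinetic constants derived by fitting the binding curves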
Overview of recorded kon for various binders

# binder, units, kon
records = [
    ("A4-064 (VHH) VHH: VQLQESGGGLVQSGGSLRLSCAASGRNFSLNTVGWYRQAPGKQRELVATVTSGGGTNYAGSVKGRFTISRDNAKNTVYLQMNSLRPEDTAVYYCHVDEVRESTWTTSNLWGQGTQVTVSS", "M⁻¹ s⁻¹", 6600),
    ("A4-099 (VHH) VHH: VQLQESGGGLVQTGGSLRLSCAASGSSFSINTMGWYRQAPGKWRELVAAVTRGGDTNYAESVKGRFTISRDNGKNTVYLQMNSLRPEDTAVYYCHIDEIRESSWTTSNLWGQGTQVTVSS", "M⁻¹ s⁻¹", 197000),
    ("A4-092 (VHH) VHH: VQLQESGGGLVQTGGSLRLSCLASGSIFSINTMGWYRQRAGKQRELVATVTRAGSTNYADSVKGRFTISRDNAKNTVYLQMNSLRPEDTAVYYCHVDEIRESSWTTSNLWGQGTQVTVSS", "M⁻¹ s⁻¹", 55100),
    ("A4-056 (VHH) VHH: VQLQESGGGLVQPGGSLRLSCAASGSAFSINTMGWYRQAPGKQREKVAAVTRGGSTNYADSVKGRFTISRDNAKNTVYLQMNSLRPEDTAVYYCHVDEVRQSSWTTSNLWGQGTQVTVSS", "M⁻¹ s⁻¹", 21600),
    ("A4-083 (VHH) VHH: VQLQESGGGLVQTGGSLKLSCAASGSRFSLNTMGWYRQAPRKQREFVAAVTRGGNTNYGDFVKGRFTISRDNAKNTVYLQMNSLRPEDTAVYYCHVDELRESSWTTSNLWGQGTQVTVSS", "M⁻¹ s⁻¹", 3640),
    ("A4-072 (VHH) VHH: VQLQESGGGLAQPGGSLRLSCAASGSSFVINTMGWYRQAPGKQREFVATVTRGGSTNYGEFVKGRFTISRDNAKNTVYLQMNSLRPEDTAVYYCHVDELRQSSWTTSNLWGQGTQVTVSS", "M⁻¹ s⁻¹", 53500),
    ("A4-077 (VHH) VHH: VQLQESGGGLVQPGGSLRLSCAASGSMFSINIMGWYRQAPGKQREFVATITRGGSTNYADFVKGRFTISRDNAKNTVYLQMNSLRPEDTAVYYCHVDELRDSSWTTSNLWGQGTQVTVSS", "M⁻¹ s⁻¹", 99300),
]
